Provide the reported IC50 of each item.
# Measured target: human alpha1 nicotinic acetylcholine (nACh) receptor (Homo sapiens, UniProt P02708)
# Sequence (P02708 21-457): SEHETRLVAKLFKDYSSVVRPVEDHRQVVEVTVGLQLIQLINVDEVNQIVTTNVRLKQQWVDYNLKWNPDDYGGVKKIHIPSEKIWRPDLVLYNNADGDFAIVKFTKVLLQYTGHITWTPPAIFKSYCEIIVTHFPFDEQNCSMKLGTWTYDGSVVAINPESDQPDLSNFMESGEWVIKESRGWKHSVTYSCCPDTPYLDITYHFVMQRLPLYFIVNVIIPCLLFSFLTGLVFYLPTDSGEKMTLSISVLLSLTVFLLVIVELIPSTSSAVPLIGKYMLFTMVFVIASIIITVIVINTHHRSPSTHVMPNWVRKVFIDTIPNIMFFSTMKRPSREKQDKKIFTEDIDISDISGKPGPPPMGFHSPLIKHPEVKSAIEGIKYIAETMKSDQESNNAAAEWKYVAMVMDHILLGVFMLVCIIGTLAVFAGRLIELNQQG
# Sequence (P11230 24-501 partner): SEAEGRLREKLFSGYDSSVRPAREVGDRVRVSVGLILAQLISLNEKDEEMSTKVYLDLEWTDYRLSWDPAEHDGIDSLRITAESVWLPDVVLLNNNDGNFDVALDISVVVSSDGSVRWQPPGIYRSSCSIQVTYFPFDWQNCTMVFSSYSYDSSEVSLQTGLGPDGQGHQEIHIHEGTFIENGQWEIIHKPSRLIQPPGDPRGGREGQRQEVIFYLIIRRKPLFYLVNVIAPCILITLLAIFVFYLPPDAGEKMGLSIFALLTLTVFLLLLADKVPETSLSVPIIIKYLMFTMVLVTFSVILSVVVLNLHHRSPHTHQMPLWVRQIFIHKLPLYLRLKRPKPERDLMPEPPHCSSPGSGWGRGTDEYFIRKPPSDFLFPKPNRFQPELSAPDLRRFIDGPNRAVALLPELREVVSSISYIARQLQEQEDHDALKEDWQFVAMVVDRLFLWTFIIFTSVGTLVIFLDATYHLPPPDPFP
# Sequence (Q07001 22-517 partner): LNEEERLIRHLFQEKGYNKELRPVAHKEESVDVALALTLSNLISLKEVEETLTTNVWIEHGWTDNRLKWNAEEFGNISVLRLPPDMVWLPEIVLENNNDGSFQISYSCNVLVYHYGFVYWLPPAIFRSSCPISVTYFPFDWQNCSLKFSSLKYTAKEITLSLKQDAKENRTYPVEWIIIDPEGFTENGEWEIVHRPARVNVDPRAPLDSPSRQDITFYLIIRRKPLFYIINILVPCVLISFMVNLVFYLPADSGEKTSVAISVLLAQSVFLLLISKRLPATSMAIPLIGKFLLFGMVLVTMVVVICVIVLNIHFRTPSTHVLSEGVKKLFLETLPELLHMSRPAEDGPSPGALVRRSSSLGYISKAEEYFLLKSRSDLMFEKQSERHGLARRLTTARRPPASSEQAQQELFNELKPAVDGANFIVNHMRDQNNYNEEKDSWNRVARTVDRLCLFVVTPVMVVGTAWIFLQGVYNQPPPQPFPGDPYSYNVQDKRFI
# Method: Nicotinic acetylcholine receptor antagonism assay, IONFlux automated patch clamp (Example 203)
# Assay type: cell-based
# Run conditions: antagonism of ACh-stimulated human alpha1 nAChR current, patch clamp

# input Fill in: IC50 of CC(C)N(C)[C@@H]1CC[C@H](N2CC[C@H](Nc3ncnc4ccc(C(F)(F)F)cc34)C2=O)[C@H](NC(=O)[C@H]2C[C@@H](NC(=O)CCOCCNC(=O)CCOCCNC(=O)[C@H]3CC(=O)N(C)[C@@H]3c3cccnc3)C2)C1 is ___
# output ≥ 100 µM

# input Fill in: IC50 of CC(C)N(C)[C@@H]1CC[C@H](N2CC[C@H](Nc3ncnc4ccc(C(F)(F)F)cc34)C2=O)[C@H](NC(=O)[C@H]2CC[C@@H](NC(=O)CCOCCOCCNC(=O)CCNC(=O)[C@H]3CC(=O)N(C)[C@@H]3c3cccnc3)CC2)C1 is ___
# output ≥ 100 µM

# input Fill in: IC50 of CC(C)N(C)[C@@H]1CC[C@H](N2CC[C@H](Nc3ncnc4ccc(C(F)(F)F)cc34)C2=O)[C@H](NC(=O)[C@H]2CC[C@@H](NC(=O)CCCOCCCCOCCNC(=O)[C@H]3CC(=O)N(C)[C@@H]3c3cccnc3)CC2)C1 is ___
# output ≥ 10 µM

# input Fill in: IC50 of CC(C)N(C)[C@@H]1CC[C@H](N2CC[C@H](Nc3ncnc4ccc(C(F)(F)F)cc34)C2=O)[C@H](NC(=O)[C@H]2CC[C@H](NC(=O)CCCC(=O)NCCCOCCCNC(=O)[C@H]3CC(=O)N(C)[C@@H]3c3cccnc3)CC2)C1 is ___
# output ≥ 100 µM

# input Fill in: IC50 of CC(C)N(C)[C@@H]1CC[C@H](N2CC[C@H](Nc3ncnc4ccc(C(F)(F)F)cc34)C2=O)[C@H](NC(=O)C2CCN(c3ccc(C(=O)NCCOCCOCCNC(=O)[C@H]4CC(=O)N(C)[C@@H]4c4cccnc4)cc3)CC2)C1 is ___
# output ≥ 10 µM

###

# Tested on: endogenous target monocytes in human PBMC
# Method: PBMC ex vivo monocyte depletion flow cytometry assay (Example 200)
# Assay type: cell-based
# Run conditions: with anti-cotinine antibody (SEQ ID NO: 11/12), 18-24 hours, EC50 in molar, read-out: Ex Vivo Depletion Assay pEC50 (converted)
Provide the reported EC50 of each item.
Report the figure in nM without appending any unit label.

# input Fill in: EC50 of CC(C)N(C)[C@@H]1CC[C@H](N2CC[C@H](Nc3ncnc4ccc(C(F)(F)F)cc34)C2=O)[C@H](NC(=O)[C@H]2CC[C@@H](NC(=O)C3CCC4(CC3)CCN(C(=O)[C@H]3CC(=O)N(C)[C@@H]3c3cccnc3)CC4)CC2)C1 [Example 95] is ___
# output 631

# input Fill in: EC50 of CN1C(=O)C[C@H](C(=O)NCCOCCNC(=O)[C@H]2C[C@H](NC(=O)CCOCCC(=O)N[C@@H]3C[C@H](NC(C)(C)C)CC[C@@H]3N3CC[C@H](Nc4ncnc5ccc(C(F)(F)F)cc45)C3=O)C2)[C@H]1c1cccnc1 [Example 188] is ___
# output 0.316

# input Fill in: EC50 of CC(C)N(C)[C@@H]1CC[C@H](N2CC[C@H](Nc3ncnc4ccc(C(F)(F)F)cc34)C2=O)[C@H](NC(=O)CCOCCOCCOCCNc2c(NCCNC(=O)[C@H]3CC(=O)N(C)[C@@H]3c3cccnc3)c(=O)c2=O)C1 [Example 168] is ___
# output 1

# input Fill in: EC50 of CC(C)N(C)[C@@H]1CC[C@H](N2CC[C@H](Nc3ncnc4ccc(C(F)(F)F)cc34)C2=O)[C@H](NC(=O)[C@H]2CC[C@@H](N3CCN(CCCCCCCCNC(=O)[C@H]4CC(=O)N(C)[C@@H]4c4cccnc4)CC3)CC2)C1 [Example 145] is ___
# output 1.26

# input Fill in: EC50 of CC(C)N(C)[C@@H]1CC[C@H](N2CC[C@H](Nc3ncnc4ccc(C(F)(F)F)cc34)C2=O)[C@H](NC(=O)CCOCCNC(=O)COCCNC(=O)CCOCCNC(=O)[C@H]2CC(=O)N(C)[C@@H]2c2cccnc2)C1 [Example 163] is ___
# output 0.871

# input Fill in: EC50 of CC(C)N(C)[C@@H]1CC[C@H](N2CC[C@H](Nc3ncnc4ccc(C(F)(F)F)cc34)C2=O)[C@H](NC(=O)COCCNC(=O)CCNC(=O)COCCOCCNC(=O)[C@H]2CC(=O)N(C)[C@@H]2c2cccnc2)C1 [Example 79] is ___
# output 3.16

# input Fill in: EC50 of CC(C)N(C)[C@@H]1CC[C@H](N2CC[C@H](Nc3ncnc4ccc(C(F)(F)F)cc34)C2=O)[C@H](NC(=O)CCOCCNC(=O)CCCO[C@H]2CC[C@@H](OCCNC(=O)[C@H]3CC(=O)N(C)[C@@H]3c3cccnc3)CC2)C1 [Example 6] is ___
# output 0.2

# input Fill in: EC50 of CC(C)N(C)[C@@H]1CC[C@H](N2CC[C@H](Nc3ncnc4ccc(C(F)(F)F)cc34)C2=O)[C@H](NC(=O)[C@H]2CC[C@@H](NC(=O)CCOCCOCCNC(=O)CNC(=O)[C@H]3CC(=O)N(C)[C@@H]3c3cccnc3)CC2)C1 [Example 63] is ___
# output 0.631

# input Fill in: EC50 of CC(C)N(C)[C@@H]1CC[C@H](N2CC[C@H](Nc3ncnc4ccc(C(F)(F)F)cc34)C2=O)[C@H](NC(=O)[C@H]2CC[C@@H](NC(=O)CCOCCNC(=O)CCNC(=O)CCNC(=O)[C@H]3CC(=O)N(C)[C@@H]3c3cccnc3)CC2)C1 [Example 182] is ___
# output 0.158

# input Fill in: EC50 of CC(C)N(C)[C@@H]1CC[C@H](N2CC[C@H](Nc3ncnc4ccc(C(F)(F)F)cc34)C2=O)[C@H](NC(=O)c2cnn(C3CCN(C(=O)CCCCCCCCCCNC(=O)[C@H]4CC(=O)N(C)[C@@H]4c4cccnc4)CC3)c2)C1 [Example 156] is ___
# output 0.794

# input Fill in: EC50 of CC(C)N(C)[C@@H]1CC[C@H](N2CC[C@H](Nc3ncnc4ccc(C(F)(F)F)cc34)C2=O)[C@H](NC(=O)C2CCC(N3CCC(S(=O)(=O)NCCCCCCNC(=O)[C@H]4CC(=O)N(C)[C@@H]4c4cccnc4)CC3)CC2)C1 (single isomer, unassigned) [Example 149] is ___
# output 0.251

# input Fill in: EC50 of CC(C)N(C)[C@@H]1CC[C@H](N2CC[C@H](Nc3ncnc4ccc(C(F)(F)F)cc34)C2=O)[C@H](NC(=O)CCOCCOCCNC(=O)[C@@H]2CCCN2CCOCCNC(=O)[C@H]2CC(=O)N(C)[C@@H]2c2cccnc2)C1 [Example 118] is ___
# output 15.8

# input Fill in: EC50 of CN1C(=O)C[C@H](C(=O)NCCOCC(=O)NCCOCCC(=O)NCCOCCC(=O)N[C@@H]2C[C@H](NC(C)(C)C)CC[C@@H]2N2CC[C@H](Nc3ncnc4ccc(C(F)(F)F)cc34)C2=O)[C@H]1c1cccnc1 [Example 106] is ___
# output 0.794

# input Fill in: EC50 of CC(C)N(C)[C@@H]1CC[C@H](N2CC[C@H](Nc3ncnc4ccc(C(F)(F)F)cc34)C2=O)[C@H](NC(=O)CCOCCNC(=O)CCOCCNC(=O)CCOCCNC(=O)[C@H]2CC(=O)N(C)[C@@H]2c2cccnc2)C1 [Example 46] is ___
# output 0.501
